Molecular target: CYCLIN K (nuclear staining in CAL-120 cells) (Homo sapiens, UniProt O75909)
Construct: endogenous in cells; host or cells: CAL-120 human breast cancer cells (DSMZ ACC 459)
Sequence (O75909 whole entry): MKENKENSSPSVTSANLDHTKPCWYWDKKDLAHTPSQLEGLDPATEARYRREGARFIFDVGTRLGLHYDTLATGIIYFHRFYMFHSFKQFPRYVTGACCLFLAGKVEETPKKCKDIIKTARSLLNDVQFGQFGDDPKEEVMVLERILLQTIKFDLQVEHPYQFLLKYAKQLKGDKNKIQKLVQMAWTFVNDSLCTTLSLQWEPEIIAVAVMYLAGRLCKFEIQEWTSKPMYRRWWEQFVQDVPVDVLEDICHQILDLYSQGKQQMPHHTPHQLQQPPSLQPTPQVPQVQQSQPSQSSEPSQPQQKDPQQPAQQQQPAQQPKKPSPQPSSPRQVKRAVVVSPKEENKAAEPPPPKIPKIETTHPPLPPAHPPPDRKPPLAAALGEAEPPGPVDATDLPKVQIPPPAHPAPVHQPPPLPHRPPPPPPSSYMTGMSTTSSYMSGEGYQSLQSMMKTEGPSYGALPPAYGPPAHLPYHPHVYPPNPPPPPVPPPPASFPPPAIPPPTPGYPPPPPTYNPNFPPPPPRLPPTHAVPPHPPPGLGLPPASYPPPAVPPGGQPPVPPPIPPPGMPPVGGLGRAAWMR
Sequence (Q9NYV4 whole entry partner): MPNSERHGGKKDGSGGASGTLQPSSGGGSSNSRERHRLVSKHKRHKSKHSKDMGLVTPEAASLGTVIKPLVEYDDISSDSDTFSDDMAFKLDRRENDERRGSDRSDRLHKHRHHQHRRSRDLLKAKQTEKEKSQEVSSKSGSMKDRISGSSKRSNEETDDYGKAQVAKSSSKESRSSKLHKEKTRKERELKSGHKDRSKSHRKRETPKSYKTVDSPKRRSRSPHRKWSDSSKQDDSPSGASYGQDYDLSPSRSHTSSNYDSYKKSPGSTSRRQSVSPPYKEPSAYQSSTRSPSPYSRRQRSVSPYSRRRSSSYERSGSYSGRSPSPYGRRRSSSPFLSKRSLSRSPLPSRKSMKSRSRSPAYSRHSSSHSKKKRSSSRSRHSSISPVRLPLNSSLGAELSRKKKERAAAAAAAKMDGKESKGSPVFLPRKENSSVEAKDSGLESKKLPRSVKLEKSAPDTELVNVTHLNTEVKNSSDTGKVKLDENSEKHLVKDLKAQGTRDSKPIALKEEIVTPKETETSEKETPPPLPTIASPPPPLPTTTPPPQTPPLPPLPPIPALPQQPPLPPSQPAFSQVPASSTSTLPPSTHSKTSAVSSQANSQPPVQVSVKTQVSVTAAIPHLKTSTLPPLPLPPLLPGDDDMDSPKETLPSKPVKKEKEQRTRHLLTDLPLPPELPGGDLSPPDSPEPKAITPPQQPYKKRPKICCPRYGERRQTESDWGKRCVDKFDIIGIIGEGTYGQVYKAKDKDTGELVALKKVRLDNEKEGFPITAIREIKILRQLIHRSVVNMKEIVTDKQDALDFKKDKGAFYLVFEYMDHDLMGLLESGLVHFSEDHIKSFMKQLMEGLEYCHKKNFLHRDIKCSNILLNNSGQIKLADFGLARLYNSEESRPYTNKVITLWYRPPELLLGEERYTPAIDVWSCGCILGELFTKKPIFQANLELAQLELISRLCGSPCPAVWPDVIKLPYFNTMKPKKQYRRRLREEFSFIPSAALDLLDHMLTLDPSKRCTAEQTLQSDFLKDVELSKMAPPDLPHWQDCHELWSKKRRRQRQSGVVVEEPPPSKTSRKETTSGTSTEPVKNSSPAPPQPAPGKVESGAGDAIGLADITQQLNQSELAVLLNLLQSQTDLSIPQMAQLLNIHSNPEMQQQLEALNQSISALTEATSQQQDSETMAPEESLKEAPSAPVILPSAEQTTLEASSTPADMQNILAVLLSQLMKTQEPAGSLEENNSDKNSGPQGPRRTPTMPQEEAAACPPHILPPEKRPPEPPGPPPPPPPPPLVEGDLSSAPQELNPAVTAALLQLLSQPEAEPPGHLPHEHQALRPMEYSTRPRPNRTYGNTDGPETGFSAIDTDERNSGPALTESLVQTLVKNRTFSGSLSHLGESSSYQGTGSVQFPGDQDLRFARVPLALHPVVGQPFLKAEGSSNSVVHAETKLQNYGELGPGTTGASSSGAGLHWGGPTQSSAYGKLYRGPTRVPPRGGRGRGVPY
Test: CYCLIN K nuclear protein level: immunofluorescence high content analysis (CAL-120)
Type: cell-based
Conditions: 24 h, 50% reduction of nuclear CCNK staining intensity, median, read-out: CYCLIN K degradation IF, DC50-[mol/l] (median)
Endpoint Name: DC50 (pM)
One number for each entry, in pM.

* Fc1ccc2[nH]c(CNc3nc(N4C[C@@H]5CCCN[C@@H]5C4)nc4c(C5CC5)cnn34)nc2c1 | 859
* C[C@H]1CN(c2nc(NCc3nnc(-c4ccccc4)[nH]3)n3ncc(Br)c3n2)CCN1C.O=CO [Example 122, formate] | 735
* CN1CCN(c2nc(NCc3nc4cc(Cl)c(Cl)cc4[nH]3)n3ncc(Br)c3n2)CC1 | 160
* Cc1ccc2[nH]c(CNc3nc(N4CCN(C)CC4)nc4c(C5CC5)cnn34)nc2c1 | 199
* Fc1cccc(-c2cnn3c(NCc4nc5ccccc5[nH]4)nc(N4CCOCC4)nc23)c1 | 19600

Hello, I would appreciate it if you could give DC50 for each entry below.
1. Fc1ccc2[nH]c(CNc3nc(N4CCOCC4)nc4c(Cl)cnn34)nc2c1F
2. Brc1cnn2c(NCc3nc4ccccc4[nH]3)nc(N3CCC4(CCCN4)C3)nc12 (centres unmarked)
3. Cc1ccc2[nH]c(CNc3nc(N4C[C@H]5C[C@@H]4CO5)nc4c(C5CC5)cnn34)nc2c1
4. Fc1cccc2[nH]c(CNc3nc(N4CCN5CCC4CC5)nc4c(C(F)(F)F)cnn34)nc12
5. Fc1ccc2[nH]c(CNc3nc(N4CCOCC4)nc4c(C5CCC5)cnn34)nc2c1F
6. Cc1cc2nc(CNc3nc(N4CC5CCC(C4)N5)nc4c(Br)cnn34)[nH]c2cc1C
7. Fc1ccc2[nH]c(CNc3nc(N4CCNCC4)nc4c(C5CC5)cnn34)nc2c1
8. Fc1ccc2[nH]c(CNc3nc(N4CCOCC4)nc4c(Br)cnn34)nc2c1

A.
[552, 6490, 2290, 453, 1800, 644, 268, 892]
